Molecular target: SARS-CoV-2 Main Protease (SARS-CoV-2)
Conditions: 50.0 µM
The molecules listed here are annotated with their inhibition.
Note: a bare number is incomplete; add the unit.

>>> measured_result("N#Cc1cc(Cl)cc(NC(=O)Nc2cccnc2)c1")
"36.5%"
>>> measured_result("COc1ccccc1N1CCN(C(=O)c2cc(=O)[nH]c3ccccc23)CC1")
"14.8%"
>>> measured_result("CC(C)(C)CC(=O)C(C#N)C(=O)Nc1ccccc1 (configuration not stated)")
"0%"
>>> measured_result("NS(=O)(=O)c1ccc(N2CCC(CN3CCCCCC3)CC2)cc1")
"5.22%"
>>> measured_result("Cc1cnn(C)c1NC(=O)Cc1cccc(Cl)c1")
"23.1%"

Next molecule, inhibition to be filled in.
Look up inhibition for this molecule: CN1C(=O)/C(=N\NC(=O)c2ccc3c(c2)OCO3)c2ccccc21 -12.8%

----------
Conditions: 20.0 µM
value_type: relative solubility at 20 uM
Just the number, please, no unit after it.

>>> measured_result("C=CC(=O)N(c1ccc(C(F)(F)F)cc1)C(C(=O)NCCc1cccc(F)c1)c1cncc(C)c1 (centres undefined)")
0.91
>>> measured_result("Cc1ccncc1N(C)C(=O)[C@@H]1C[C@H]1CF (stereo in doubt)")
1.01
>>> measured_result("O=C(c1cc2sccc2s1)N1CCOC(CN2CCOCC2)C1 (centres undefined)")
1
>>> measured_result("C=CC(=O)N(c1ccc(C(C)OC)cc1)C(C(=O)Nc1ccc(OC)cc1C)c1cccnc1 (centres undefined)")
0.99
>>> measured_result("C=CC(=O)N(c1ccc(C2(C)CC2)cc1)C(C(=O)Nc1c(C)cccc1CC)c1cccnc1 (centres undefined)")
0.8

Read the next record carefully.
Recorded relative solubility at 20 uM of C=CC(=O)N(c1cc(C(C)(C)C)n[nH]1)C(C(=O)Nc1c(C)cccc1CC)c1cccnc1 (centres undefined) , please. 0.92

----------
A collection of molecules and their measured inhibition
Molecular target: SARS-CoV-2 Main Protease (SARS-CoV-2)
Settings: 50.0 µM
Give your result in % as a bare value.

>>> measured_result("C=CC(=O)N(c1ccc(C2CCOC2)cc1)C(C(=O)NC(C)(C)C)c1cccnc1 (stereo unspecified)")
4.28
>>> measured_result("CC(C)Cn1cc(NC(=O)NC2=NN(c3ccccc3)CC2)c2ccccc2c1=O")
5.45
>>> measured_result("C=CC(=O)N(c1ccc(CCC#N)cc1)C(C(=O)NC(C)(C)C)c1cccnc1 (stereo unspecified)")
3.3
>>> measured_result("CC1CN(Cc2cccc(Cl)c2)CCN1C(=O)CCl (stereo unspecified)")
93.9
>>> measured_result("N#Cc1cccc(CN2CCN(C(=O)CCl)CC2)c1")
85.2
>>> measured_result("Cc1ccncc1NC(=O)Cc1cccc(Br)c1")
77.7
>>> measured_result("NS(=O)(=O)c1ccc(N2CCC(N3CCCCC3)CC2)cc1")
7.79
>>> measured_result("O=C(NCCN1CCN(c2ccccc2)CC1)NCc1ccccn1")
12.5
>>> measured_result("CCn1c(=O)n(CC(=O)NCc2cnccn2)c2ccccc21")
6.74
>>> measured_result("O=C(Nc1cccc(-c2cc[nH]n2)c1)C(O)c1cccnc1 (stereo unspecified)")
10.4

Here is another molecule to look at.
Name the reported inhibition value associated with the molecule NC(=O)C[S@@+]([O-])C(c1ccccc1)c1ccccc1 (stereo in doubt) -1.92

----------
# IC50 measurements, system: SARS-CoV-2 Main Protease (SARS-CoV-2) (UniProt P0DTD1)
// note: answer is a bare numeric in µM

Check out these entries, answers already filled in.
>>> measured_result("O=C(Cc1cc(Cl)cc(Cc2ccn[nH]2)c1)Nc1cncc2ccccc12")
9.39
>>> measured_result("O=[N+]([O-])c1cnc(Sc2nnc(-c3ccco3)n2-c2ccc(OCc3ccccc3)cc2)s1")
0.66
>>> measured_result("O=C(Cc1cc(Cl)cc(CC2CC(=O)N2)c1)Nc1cncc2ccccc12 (stereo unspecified)")
4.42
>>> measured_result("O=C(Nc1cncc2ccccc12)[C@@H]1COc2ccc(Cl)cc2C1 (stereo in doubt)")
3.56
>>> measured_result("Cc1cc(C(=O)CCl)c(C)n1CC1COc2ccccc2O1 (stereo unspecified)")
4.15

SARS-CoV-2 Main Protease (SARS-CoV-2) (UniProt P0DTD1) / IC50 / Cc1ccncc1NC(=O)Cc1cc(Cl)cc(-c2ccc(S(C)(=O)=O)cc2Cl)c1 : value? 19.5

Missing value: IC50, SARS-CoV-2 Main Protease (SARS-CoV-2) (UniProt P0DTD1), entry C=CC(=O)N(c1ccc(C2(C)CC2)cc1)C(C(=O)Nc1ccc(Br)cc1)c1cccnc1 (stereo unspecified) . Fill in? 19.4

Recall the recorded IC50 for C=CC(=O)N(c1ccc(C(C)(C)C)cc1)C(C(=O)NCc1ccccc1)c1cccnc1 (stereo unspecified) with SARS-CoV-2 Main Protease (SARS-CoV-2) (UniProt P0DTD1) and state it. 14.3

Item: O=C(Cc1cccc(Cl)c1)Nn1nnc2ccccc21 Test system: SARS-CoV-2 Main Protease (SARS-CoV-2) (UniProt P0DTD1) Read-out: IC50 Value: ? 31

For SARS-CoV-2 Main Protease (SARS-CoV-2) (UniProt P0DTD1), provide IC50 of O=C(Cc1ccc(Cl)c(Cl)c1)Nc1cncc2ccccc12 please. 0.132

// fetch SARS-CoV-2 Main Protease (SARS-CoV-2) (UniProt P0DTD1) IC50 for Nc1cncc2c1CCCN2C(=O)Cc1cccc(Cl)c1 54.2

----------
Molecular target: SARS-CoV-2 Main Protease (SARS-CoV-2) (UniProt P0DTD1)
Conditions: 50.0 µM
compounds and their reported inhibition
Note: unit % is implicit; provide only the numeric part.

These solved cases illustrate the format of a correct answer.
>>> measured_result("O=C(Cc1c[nH]c2ncccc12)NCc1cc(Cl)ccn1")
8.45
>>> measured_result("O=C(Cn1ccnc1[N+](=O)[O-])NCc1ccccc1")
4.09
>>> measured_result("COC(=O)C(c1ccccc1Cl)N1CCc2sccc2C1 (stereo unspecified)")
4.1
>>> measured_result("Cc1cccc(NC2CCN(c3ccc(S(N)(=O)=O)cc3)CC2)c1")
-0.838
>>> measured_result("CCSCC1CCN(c2ccc(S(N)(=O)=O)cc2)CC1")
-25.8
>>> measured_result("Cc1ccncc1NC(=O)Cc1ccc2[nH]ncc2c1")
0.248
>>> measured_result("CNS(=O)(=O)c1ccc(C(C)NC(=O)NC(C)(C)C)cc1 (stereo unspecified)")
-0.25
>>> measured_result("C#Cc1cccc(N(C(=O)C=C)C(C(=O)NC(C)(C)C)c2cccnc2)c1 (stereo unspecified)")
3.7
>>> measured_result("C=CC(=O)N(c1ccc(C(C)C)nc1)C(C(=O)Nc1ccc(OC)cc1C)c1cccnc1 (stereo unspecified)")
10.4
>>> measured_result("O=C(NC1CCCCC1NC(=O)c1ccncc1)c1ccccc1 (stereo unspecified)")
-22.4

Next:
What inhibition value was documented for this compound, O=C(Cc1cccc(Cl)c1)Nn1cnc2ccccc21 ? 87.7

----------
The entries below are paired with their reported inhibition.
Target: SARS-CoV-2 Main Protease (SARS-CoV-2) (UniProt P0DTD1)
Settings: 50.0 µM
Express the result in % but write the number alone.

Example molecules with recorded inhibition:
>>> measured_result("N#Cc1ncccc1NC(=O)Cc1cccc(Cl)c1")
0
>>> measured_result("CC1(C)Cc2cccc(OCCNC(=O)c3cc(=O)[nH]c4ccc(Cl)cc34)c2O1")
18.7
>>> measured_result("C=CC(=O)N1CCN(Cc2cc(Cl)cc3ccccc23)CC1")
0

Attention now shifts to the item below.
Notebook entry, SARS-CoV-2 Main Protease (SARS-CoV-2) (UniProt P0DTD1) assay: inhibition of O=C(C1CCN(S(=O)(=O)c2ccccc2)CC1)N1CCOCC1 = ? 0

----------
Conditions: 20.0 µM
Listed compounds paired with reported relative solubility at 20 uM
// no unit, no text: just the number

>>> measured_result("CN1CCC(C(=O)NC2CCCCC2NC(=O)c2ccccc2)CC1 (stereo unspecified)")
0.98
>>> measured_result("CCCN(C(=O)Cc1cccc(Cl)c1)c1cccnc1")
1
>>> measured_result("O=C(CCl)N1CCN(C(c2ccccc2)c2ccccc2)CC1")
-0.2
>>> measured_result("Nc1ncncc1CNC(=O)Nc1ccccc1OCCn1ccnc1")
1

relative solubility at 20 uM for Cc1ccc(S(=O)(=O)N2CCN(C(=O)c3cc(=O)[nH]c4ccc(F)cc34)CC2)c(C)c1 ? 0.98

relative solubility at 20 uM for O=C1Nc2ccc(Br)cc2C1=O ? 1

Field request: relative solubility at 20 uM | item: CC(OCC1CCCCO1)C(=O)N(CCc1ccccc1)Cc1cccnc1 (stereo unspecified) 1

So what does the record say about relative solubility at 20 uM for Cc1ccncc1NC(=O)[C@@]12COC[C@@H]1C2 (stereo in doubt) ? 1

Entry Cc1ccncc1NC(=O)CN1C(=O)COc2ccc(Cl)cc21 has what relative solubility at 20 uM? 0.99

Give the measured relative solubility at 20 uM of CCCc1cc2c(cc1S(=O)(=O)N1CCN(c3ccccc3)CC1)OCO2 . 0.91

Please give the measured relative solubility at 20 uM for this compound: COc1ccccc1OC(C)CNC(=O)c1cc(=O)[nH]c2cc(F)ccc12 (stereo unspecified) 1

src = the COVID Moonshot data (paper PMC11187573)
